- measurementContext: [M+H]+; instrument: TW; calibrated with polyalanine and drug standards
Where a name gives a salt, the structure may show the parent alone.
Property: collision cross section (N2); scope: individual molecules
Provide only the numeric value, understood in Å².

{"molecule": "NS(=O)(=O)c1cc2c(cc1Cl)NC(CSCc1ccccc1)=NS2(=O)=O [BENZTHIAZIDE]", "unitSymbol": "Å²", "collision cross section (N2)": 186.7}
{"molecule": "COc1ccc(-c2cc(=O)c3c(O)cc(O)cc3o2)cc1O [DIOSMETIN]", "unitSymbol": "Å²", "collision cross section (N2)": 164.8}
{"molecule": "CC(=O)O[C@@H]1C[C@@]2(C)C(CC[C@@H]2C(C)=O)C2CCC3=CC(=O)CC[C@]3(C)C21 (some centres not stated) [11a-ACETOXYPROGESTERONE]", "unitSymbol": "Å²", "collision cross section (N2)": 190.6}
{"molecule": "CC(C)=CCCC1(C)C=Cc2c(O)c3c(c(CC=C(C)C)c2O1)OC12C(CC4CC1C(C)(C)OC2(C/C=C(/C)C(=O)O)C4O)C3=O (configuration not stated) [TETRAHYDROGAMBOGIC ACID]", "unitSymbol": "Å²", "collision cross section (N2)": 246.4}
{"molecule": "O=C1C[C@@H]2OCC=C3CN4CC[C@]56c7ccccc7N1[C@H]5[C@H]2[C@H]3C[C@H]46 [STRYCHNINE]", "unitSymbol": "Å²", "collision cross section (N2)": 172.2}

Exam item: Note collision cross section (N2) for the molecule shown: C1N2CN3CN1CN(C2)C3 [METHENAMINE]
Marked response: 126.8

Exam item: Note collision cross section (N2) for the molecule shown: CCN(CC)CCOCCOC(=O)C(CC)(CC)c1ccccc1 [OXELAIDIN CITRATE]
Marked response: 178.3

Exam item: Note collision cross section (N2) for the molecule shown: COc1ccc2c(=O)c(OC)c(-c3ccccc3)oc2c1 [3,7-DIMETHOXYFLAVONE]
Marked response: 160.7

Exam item: Note collision cross section (N2) for the molecule shown: N[C@@H](Cc1cc(I)c(Oc2ccc(O)c(I)c2)c(I)c1)C(=O)O [LIOTHYRONINE]
Marked response: 205.3

Exam item: Note collision cross section (N2) for the molecule shown: Nc1ncnc2c1ncn2[C@@H]1O[C@H](CO)[C@@H](O)[C@H]1O [ADENOSINE]
Marked response: 156.9

Exam item: Note collision cross section (N2) for the molecule shown: COc1c(O)cc2c(-c3ccccc3)cc(=O)oc2c1OC [KUHLMANNIN]
Marked response: 165.6

Exam item: Note collision cross section (N2) for the molecule shown: CC(C)CCCC1(C)C=Cc2c(O)c3c(c(CCC(C)C)c2O1)OC12C(CC4CC1C(C)(C)OC2(CCC(C)C(=O)O)C4O)C3=O (configuration not stated) [DECAHYDROGAMBOGIC ACID]
Marked response: 251

Where do these numbers come from? They come from the C3SDB collision cross section collection.
